Measured IC50 Ratio (vs PYY(3-36)) accompanies every entry in the list below.
measured target: human Y2 receptor (human) (UniProt P49146)
Sequence (P49146 whole entry): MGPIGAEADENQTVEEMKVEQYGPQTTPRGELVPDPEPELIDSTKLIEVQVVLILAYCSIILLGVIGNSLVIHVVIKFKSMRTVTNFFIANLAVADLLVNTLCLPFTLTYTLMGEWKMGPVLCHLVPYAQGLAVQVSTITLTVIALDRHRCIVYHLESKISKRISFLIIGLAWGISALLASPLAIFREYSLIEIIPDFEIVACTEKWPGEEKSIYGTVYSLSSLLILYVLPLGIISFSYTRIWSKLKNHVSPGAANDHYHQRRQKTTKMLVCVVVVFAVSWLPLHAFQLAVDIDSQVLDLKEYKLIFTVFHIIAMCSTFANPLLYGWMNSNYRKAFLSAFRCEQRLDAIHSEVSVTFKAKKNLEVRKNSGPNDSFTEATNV
assay: RBA: [125I]-PYY displacement, hY2R/CHO membranes
Non-standard residues stand in square brackets, D forms with d. *: point of attachment. Cyclohexanecarbonyl = O=C(C1CCCCC1)*; 4Pal = N[C@@H](Cc1ccncc1)C(=O)O; Cha = N[C@@H](CC1CCCCC1)C(=O)O; dPip = O=C(O)[C@H]1CCCCN1; NMeA = CN[C@@H](C)C(=O)O; Nle = CCCC[C@H](N)C(=O)O; Abu = CC[C@H](N)C(=O)O; Nleu = CC(C)CNCC(=O)O; Aib = CC(C)(N)C(=O)O

binder	IC50 Ratio (vs PYY(3-36))
Ac-[dS][NMeA]RH[Cha][Cha]NL[Aib]TRQR[Cha]-NH2 (SMILES CC(=O)N[C@H](CO)C(=O)N(C)[C@@H](C)C(=O)N[C@@H](CCCNC(=N)N)C(=O)N[C@@H](Cc1c[nH]cn1)C(=O)N[C@@H](CC1CCCCC1)C(=O)N[C@@H](CC1CCCCC1)C(=O)N[C@@H](CC(N)=O)C(=O)N[C@@H](CC(C)C)C(=O)NC(C)(C)C(=O)N[C@H](C(=O)N[C@@H](CCCNC(=N)N)C(=O)N[C@@H](CCC(N)=O)C(=O)N[C@@H](CCCNC(=N)N)C(=O)N[C@@H](CC1CCCCC1)C(N)=O)[C@@H](C)O) [Ac-[D-Ser23, MeAla24, Cha27,28,36, Aib31]-PYY(23-36)]	6.1
Ac-[Abu][dP]R[Abu][Cha][Cha]NL[Aib]TRQR[Cha]-NH2 (SMILES CC[C@H](NC(=O)[C@H](CCCNC(=N)N)NC(=O)[C@H]1CCCN1C(=O)[C@H](CC)NC(C)=O)C(=O)N[C@@H](CC1CCCCC1)C(=O)N[C@@H](CC1CCCCC1)C(=O)N[C@@H](CC(N)=O)C(=O)N[C@@H](CC(C)C)C(=O)NC(C)(C)C(=O)N[C@H](C(=O)N[C@@H](CCCNC(=N)N)C(=O)N[C@@H](CCC(N)=O)C(=O)N[C@@H](CCCNC(=N)N)C(=O)N[C@@H](CC1CCCCC1)C(N)=O)[C@@H](C)O) [Ac-[Abu23, D-Pro24, Abu26, Cha27,28,36, Aib31]-PYY(23-36)]	6.9
Cyclohexanecarbonyl-R[Nle][Cha][Cha]NL[Aib]TRQR[Cha]-NH2 (SMILES CCCC[C@H](NC(=O)[C@H](CCCNC(=N)N)NC(=O)C1CCCCC1)C(=O)N[C@@H](CC1CCCCC1)C(=O)N[C@@H](CC1CCCCC1)C(=O)N[C@@H](CC(N)=O)C(=O)N[C@@H](CC(C)C)C(=O)NC(C)(C)C(=O)N[C@H](C(=O)N[C@@H](CCCNC(=N)N)C(=O)N[C@@H](CCC(N)=O)C(=O)N[C@@H](CCCNC(=N)N)C(=O)N[C@@H](CC1CCCCC1)C(N)=O)[C@@H](C)O) [Cyclohexanecarbonyl-[Nle26, Cha27,28,36, Aib31]-PYY(25-36)]	50
Ac-S[dP][Nle][4Pal][Cha][Cha]NL[Aib]TRQR[Cha]-NH2 (SMILES CCCC[C@H](NC(=O)[C@H]1CCCN1C(=O)[C@H](CO)NC(C)=O)C(=O)N[C@@H](Cc1ccncc1)C(=O)N[C@@H](CC1CCCCC1)C(=O)N[C@@H](CC1CCCCC1)C(=O)N[C@@H](CC(N)=O)C(=O)N[C@@H](CC(C)C)C(=O)NC(C)(C)C(=O)N[C@H](C(=O)N[C@@H](CCCNC(=N)N)C(=O)N[C@@H](CCC(N)=O)C(=O)N[C@@H](CCCNC(=N)N)C(=O)N[C@@H](CC1CCCCC1)C(N)=O)[C@@H](C)O) [Ac-[D-Pro24, Nle25, Pya(4)26, Cha27,28,36, Aib31]-PYY(23-36)]	20
Ac-E[dPip]RH[Cha][Cha]NL[Aib]TRQR[Cha]-NH2 (SMILES CC(=O)N[C@@H](CCC(=O)O)C(=O)N1CCCC[C@@H]1C(=O)N[C@@H](CCCNC(=N)N)C(=O)N[C@@H](Cc1c[nH]cn1)C(=O)N[C@@H](CC1CCCCC1)C(=O)N[C@@H](CC1CCCCC1)C(=O)N[C@@H](CC(N)=O)C(=O)N[C@@H](CC(C)C)C(=O)NC(C)(C)C(=O)N[C@H](C(=O)N[C@@H](CCCNC(=N)N)C(=O)N[C@@H](CCC(N)=O)C(=O)N[C@@H](CCCNC(=N)N)C(=O)N[C@@H](CC1CCCCC1)C(N)=O)[C@@H](C)O) [Ac-[Glu23, D-Pic(2)24, Cha27,28,36, Aib31]-PYY(23-36)]	17
Ac-F[dP]R[Abu][Cha][Cha]NL[Aib]TRQR[Cha]-NH2 (SMILES CC[C@H](NC(=O)[C@H](CCCNC(=N)N)NC(=O)[C@H]1CCCN1C(=O)[C@H](Cc1ccccc1)NC(C)=O)C(=O)N[C@@H](CC1CCCCC1)C(=O)N[C@@H](CC1CCCCC1)C(=O)N[C@@H](CC(N)=O)C(=O)N[C@@H](CC(C)C)C(=O)NC(C)(C)C(=O)N[C@H](C(=O)N[C@@H](CCCNC(=N)N)C(=O)N[C@@H](CCC(N)=O)C(=O)N[C@@H](CCCNC(=N)N)C(=O)N[C@@H](CC1CCCCC1)C(N)=O)[C@@H](C)O) [Ac-[Phe23, D-Pro24, Abu26, Cha27,28,36, Aib31]-PYY(23-36)]	12
Ac-S[Nleu]RH[Cha][Cha]NL[Aib]TRQR[Cha]-NH2 (SMILES CC(=O)N[C@@H](CO)C(=O)N(CC(=O)N[C@@H](CCCNC(=N)N)C(=O)N[C@@H](Cc1c[nH]cn1)C(=O)N[C@@H](CC1CCCCC1)C(=O)N[C@@H](CC1CCCCC1)C(=O)N[C@@H](CC(N)=O)C(=O)N[C@@H](CC(C)C)C(=O)NC(C)(C)C(=O)N[C@H](C(=O)N[C@@H](CCCNC(=N)N)C(=O)N[C@@H](CCC(N)=O)C(=O)N[C@@H](CCCNC(=N)N)C(=O)N[C@@H](CC1CCCCC1)C(N)=O)[C@@H](C)O)CC(C)C) [Ac-[N(iBu)Gly24, Cha27,28,36, Aib31]-PYY(23-36)]	20
